B1: TPR 5TU (parent)
chain: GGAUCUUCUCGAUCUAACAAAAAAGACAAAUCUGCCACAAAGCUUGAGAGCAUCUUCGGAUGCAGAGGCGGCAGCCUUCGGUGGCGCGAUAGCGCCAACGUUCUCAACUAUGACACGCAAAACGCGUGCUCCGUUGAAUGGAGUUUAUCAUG

Variants of: B1
PROCEDURE TEXT: polymerase ribozyme fitness, log enrichment relative to wild type (log ratio); higher = more active; in vitro selection for triplet polymerase activity
Fewer inactive variants are shown than the library holds.
MEASURED ENDPOINT: polymerase ribozyme fitness (log ratio)
Format: numeric value only, no unit, no commentary.

Sample G59A G84A ; polymerase ribozyme fitness (log ratio) observed: -2.24

Sample C72U A73U G83A ; polymerase ribozyme fitness (log ratio) observed: -2.51

Sample A17G C38U G81A C96A ; polymerase ribozyme fitness (log ratio) observed: 0.341

Sample A12U A147U ; polymerase ribozyme fitness (log ratio) observed: 0.945

Sample A23U A28G U55A G59A U78G G128A ; polymerase ribozyme fitness (log ratio) observed: -3.79

Sample A17C A40G ; polymerase ribozyme fitness (log ratio) observed: -1.63

Sample C5G G50U G81C G92C G143A ; polymerase ribozyme fitness (log ratio) observed: -2.74

Sample C79U A98G ; polymerase ribozyme fitness (log ratio) observed: -3.44

Sample A23C G34U C43U A60G C132U ; polymerase ribozyme fitness (log ratio) observed: -4.02

Sample A47C C85U C118U U130A ; polymerase ribozyme fitness (log ratio) observed: -3.62

Sample A121U ; polymerase ribozyme fitness (log ratio) observed: -0.0614

Sample U104G A120C ; polymerase ribozyme fitness (log ratio) observed: 0.532

Sample A121G G143A A147U ; polymerase ribozyme fitness (log ratio) observed: -1.46

Sample A19C G88C ; polymerase ribozyme fitness (log ratio) observed: -3.96

Sample C14A C85A C129U ; polymerase ribozyme fitness (log ratio) observed: -2.79

Sample U7C A41C C87U G126A ; polymerase ribozyme fitness (log ratio) observed: -3.82

Sample C54G A147C ; polymerase ribozyme fitness (log ratio) observed: -1.47

Sample C57G G59A G80U G92U C99A C131U U135A ; polymerase ribozyme fitness (log ratio) observed: -3.22

Sample G92A G152U ; polymerase ribozyme fitness (log ratio) observed: -3.58

Sample U15C U56G A113U ; polymerase ribozyme fitness (log ratio) observed: -0.657

Sample C96A C125G ; polymerase ribozyme fitness (log ratio) observed: -0.535

Sample C85U A98U ; polymerase ribozyme fitness (log ratio) observed: -1.49

Sample A52U G143U U148A ; polymerase ribozyme fitness (log ratio) observed: -4.01

Sample A19C G92A ; polymerase ribozyme fitness (log ratio) observed: -2.38

Sample A17U A20C A26C C93U C131U ; polymerase ribozyme fitness (log ratio) observed: -2.3

Sample G59A C75G A122U C129A G143U ; polymerase ribozyme fitness (log ratio) observed: -3.5

Sample A52G A150C ; polymerase ribozyme fitness (log ratio) observed: -3.43

Data credit: the RNAGym collection of RNA variant scans (doi:10.1073/pnas.2313332121)
